# METHOD DESCRIPTION: Cytotoxicity against mouse W1308 cells after 72 hrs by MTT assay
# Format: functional, cell-based
# ASSAY CONDITIONS: W1308, 72 h
pIC50: −log10 of the molar value.
Listed here: items and their measured pIC50.
MEASURED PROPERTY: pIC50

> print(dat)
                                    molecule  measured.property  relation.operator  value
 1  COc1cc2c(c(OC)c1OC)-c1cc3ccn(C)c3cc1C(=O)CC2              pIC50                  >   6.70
 2  COc1cc2c(c(OC)c1OC)-c1cc3cc(C(C)O)oc3cc1[C@@H](NC(C)=O)CC2 (stereo partly specified)              pIC50                  >   6.70
 3  COc1cc2c(c(OC)c1OC)-c1ccc3c(ccn3C)c1C(=O)CC2              pIC50                  >   7.70
 4  COc1cc2c(c(OC)c1OC)-c1cc3cc(-c4ccccn4)oc3cc1[C@@H](NC(C)=O)CC2              pIC50                  =   5.00
 5  COC(=O)CCCCCCCCc1cc2cc3c(cc2o1)[C@@H](NC(C)=O)CCc1cc(OC)c(OC)c(OC)c1-3              pIC50                  <   4.00
 6  CCN(CC)Cc1cc2cc3c(cc2o1)[C@@H](NC(C)=O)CCc1cc(OC)c(OC)c(OC)c1-3              pIC50                  <   4.00
 7  COc1cc2c(c(OC)c1OC)-c1cc3cc(CO)oc3cc1[C@@H](NC(C)=O)CC2              pIC50                  >   7.70
 8  COc1cc2c(c(OC)c1OC)-c1cc3cc(C4(O)CCCC4)oc3cc1[C@@H](NC(C)=O)CC2              pIC50                  =   5.10
 9  COc1cc2c(c(OC)c1OC)-c1cc3cc(CCO)oc3cc1[C@@H](NC(C)=O)CC2              pIC50                  =   6.00
10  COc1cc2c(c(OC)c1OC)-c1cc3cc(-c4ccccc4)oc3cc1[C@@H](NC(C)=O)CC2              pIC50                  =   5.10
11  COc1cc2c(c(OC)c1OC)-c1cc3cc(COC(C)=O)oc3cc1[C@@H](NC(C)=O)CC2              pIC50                  =   6.00

----------
# METHOD DESCRIPTION: Toxicity in ip dosed C57BL/6 mouse measured after 24 to 48 hrs
# Assay type: organism-based
# ASSAY CONDITIONS: C57BL/6, mouse, in vivo
MEASURED PROPERTY: LD50

> print(dat)
                                     smiles      value
1  COc1cc2c(c(OC)c1OC)-c1cc3cc(CO)oc3cc1[C@@H](NC(C)=O)CC2  0.3 mg/kg

----------
# Test system: HEK293
# METHOD DESCRIPTION: Growth inhibition of HEK293 cells at 100 uM after 72 hrs by MTT assay
# Format: functional
# ASSAY CONDITIONS: Homo sapiens, HEK293, 72 h; read-out: GI
MEASURED PROPERTY: inhibition of growth at 100 µM (%)

> print(dat)
                                   compound  assayed.system               measured.property  unit.text  value
1  COc1cc2c(c(OC)c1OC)-c1cc3cc(COC(C)=O)oc3cc1[C@@H](NC(C)=O)CC2          HEK293  inhibition of growth at 100 µM          %     50
2  COc1cc2c(c(OC)c1OC)-c1cc3cc(CCO)oc3cc1[C@@H](NC(C)=O)CC2          HEK293  inhibition of growth at 100 µM          %     50
3  COc1cc2c(c(OC)c1OC)-c1cc3cc(C(C)O)oc3cc1[C@@H](NC(C)=O)CC2 (stereo not given in full)          HEK293  inhibition of growth at 100 µM          %     60
4  COc1cc2c(c(OC)c1OC)-c1cc3cc(CO)oc3cc1[C@@H](NC(C)=O)CC2          HEK293  inhibition of growth at 100 µM          %     60
5  COc1cc2c(c(OC)c1OC)-c1cc3cc(C4(O)CCCC4)oc3cc1[C@@H](NC(C)=O)CC2          HEK293  inhibition of growth at 100 µM          %     50

----------
# System: ASPC1
# METHOD DESCRIPTION: Cytotoxicity against human AsPC1 cells after 72 hrs by MTT assay
# Assay type: functional, cell-based
# ASSAY CONDITIONS: ASPC1, 72 h
pIC50: −log10 of the molar value.
MEASURED PROPERTY: pIC50

> print(dat)
                                    compound  relation.operator  value
 1  COc1cc2c(c(OC)c1OC)-c1cc3ccn(C)c3cc1C(=O)CC2                  =   6.10
 2  CCN(CC)Cc1cc2cc3c(cc2o1)[C@@H](NC(C)=O)CCc1cc(OC)c(OC)c(OC)c1-3                  =   4.70
 3  COC(=O)CCCCCCCCc1cc2cc3c(cc2o1)[C@@H](NC(C)=O)CCc1cc(OC)c(OC)c(OC)c1-3                  <   4.00
 4  COc1cc2c(c(OC)c1OC)-c1cc3cc(C4(O)CCCC4)oc3cc1[C@@H](NC(C)=O)CC2                  =   4.70
 5  COc1cc2c(c(OC)c1OC)-c1cc3cc(COC(C)=O)oc3cc1[C@@H](NC(C)=O)CC2                  =   5.70
 6  COc1cc2c(c(OC)c1OC)-c1ccc3c(ccn3C)c1C(=O)CC2                  >   7.70
 7  COc1cc2c(c(OC)c1OC)-c1cc3cc(-c4ccccc4)oc3cc1[C@@H](NC(C)=O)CC2                  =   4.70
 8  COc1cc2c(c(OC)c1OC)-c1cc3cc(C(C)O)oc3cc1[C@@H](NC(C)=O)CC2 (stereo partly specified)                  >   6.70
 9  COc1cc2c(c(OC)c1OC)-c1cc3cc(CO)oc3cc1[C@@H](NC(C)=O)CC2                  >   7.30
10  COc1cc2c(c(OC)c1OC)-c1cc3cc(-c4ccccn4)oc3cc1[C@@H](NC(C)=O)CC2                  =   4.70
11  COc1cc2c(c(OC)c1OC)-c1cc3cc(CCO)oc3cc1[C@@H](NC(C)=O)CC2                  =   5.70

----------
# METHOD DESCRIPTION: Growth inhibition of mouse W1308 cells at 100 uM after 72 hrs by MTT assay
# Type: functional
# ASSAY CONDITIONS: W1308, 72 h, read-out: GI
Catalogue of inhibition of growth at 100 µM values
MEASURED PROPERTY: inhibition of growth at 100 µM

> print(dat)
                                   compound  value
1  COc1cc2c(c(OC)c1OC)-c1cc3cc(C(C)O)oc3cc1[C@@H](NC(C)=O)CC2 (stereo not given in full)    60%
2  COc1cc2c(c(OC)c1OC)-c1cc3cc(CO)oc3cc1[C@@H](NC(C)=O)CC2    60%
3  COc1cc2c(c(OC)c1OC)-c1cc3cc(CCO)oc3cc1[C@@H](NC(C)=O)CC2    50%
4  COc1cc2c(c(OC)c1OC)-c1cc3cc(C4(O)CCCC4)oc3cc1[C@@H](NC(C)=O)CC2    50%
5  COc1cc2c(c(OC)c1OC)-c1cc3cc(COC(C)=O)oc3cc1[C@@H](NC(C)=O)CC2    50%

----------
Some compounds, each annotated with its measured pIC50.
# Tested on: HEK293
# METHOD DESCRIPTION: Cytotoxicity against HEK293 cells after 72 hrs by MTT assay
# Assay type: functional, cell-based
# ASSAY CONDITIONS: Homo sapiens, HEK293, 72 h
pIC50: −log10 of the molar value.
MEASURED PROPERTY: pIC50

> print(dat)
                                   compound  relation.operator  value
1  COc1cc2c(c(OC)c1OC)-c1ccc3c(ccn3C)c1C(=O)CC2                  >   7.70
2  COC(=O)CCCCCCCCc1cc2cc3c(cc2o1)[C@@H](NC(C)=O)CCc1cc(OC)c(OC)c(OC)c1-3                  <   4.00
3  COc1cc2c(c(OC)c1OC)-c1cc3cc(C4(O)CCCC4)oc3cc1[C@@H](NC(C)=O)CC2                  =   5.40
4  COc1cc2c(c(OC)c1OC)-c1cc3cc(CCO)oc3cc1[C@@H](NC(C)=O)CC2                  =   6.00
5  COc1cc2c(c(OC)c1OC)-c1cc3cc(C(C)O)oc3cc1[C@@H](NC(C)=O)CC2 (stereo not given in full)                  >   6.70
